- Method summary: chemical genetic growth profiling, strain panel (AID 1159580);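 also: tested at 20 µM; growth read once vehicle control cultures reached saturation at 30 °C; 1 = growth at the plate median or of vehicle wells; lower values mean less growth of the strain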
- Run parameters: S. cerevisiae deletion strains, growth OD, locus YJL164C, strain tpk1, hits give low values
Where a name gives a salt, the structure may show the parent alone. Out of some 5,500 compounds screened, about 2,000 (36%) were called active. About 18% were inconclusive and are not listed. The list shows a part of the results. Where a SMILES comes first, the peptide text is derived from it. The star is where a group is joined. Tfa = O=C(C(F)(F)F)*
Reported property: normalized growth
Form rule: numeric answer, no unit written next to it.

*Q* Return reported normalized growth; argument: CO[C@@]1(NC(=O)CSCC#N)C(=O)N2C(C(=O)O)=C(CSc3nnnn3C)CSC21 (stereo partly drawn)
*A* 0.973

*Q* Return reported normalized growth; argument: CC(C)C(NC(=O)C(Cc1ccc(O)cc1)NC(=O)C(NC(=O)C(F)(F)F)C(C)C)C(=O)O (stereo not drawn) (Tfa-Val-Tyr-Val-OH; configuration not given here)
*A* 0.989

*Q* Return reported normalized growth; argument: O=C1OC(c2ccc(O)cc2)(c2ccc(O)cc2)c2ccccc21
*A* 0.987

*Q* Return reported normalized growth; argument: Nc1nc2ncc(=O)[nH]c2c(=O)[nH]1
*A* 0.979

*Q* Return reported normalized growth; argument: CCCCCCCCCCCCCCCC(=O)OC1C(SC)OC(C(NC(=O)C2CC(CCC)CN2C)C(C)Cl)C(O)C1O (stereo not drawn)
*A* 0.986

*Q* Return reported normalized growth; argument: Cc1cc(-c2ccccc2)nnc1NCCN1CCOCC1
*A* 0.987

*Q* Return reported normalized growth; argument: N[C@@H](CC(=O)N1CCn2c(nnc2C(F)(F)F)C1)Cc1cc(F)c(F)cc1F
*A* 1

*Q* Return reported normalized growth; argument: CCNC(=O)CC[C@H](N)C(=O)O
*A* 1.01

*Q* Return reported normalized growth; argument: COC(=O)C[C@H]1C(C)(C)C(=O)[C@@H]2CC3=C(CC[C@]4(C)C3=CC(=O)O[C@H]4c3ccoc3)[C@@]1(C)C2=O
*A* 0.994

*Q* Return reported normalized growth; argument: O=C1NC(=O)C(=O)C(=O)N1
*A* 1.01

*Q* Return reported normalized growth; argument: C=C1C(=O)O[C@@H]2C3O[C@]3(C)CC/C=C(\C)CC[C@@H]12 (stereo partly drawn)
*A* 0.95

*Q* Return reported normalized growth; argument: OC(Cn1cncn1)(Cn1cncn1)c1ccc(F)cc1F
*A* 0.992

*Q* Return reported normalized growth; argument: CCN(CC)C(=O)c1cccc(C)c1
*A* 1.02

*Q* Return reported normalized growth; argument: COC(=O)C(C)c1ccc(C(=O)c2cccs2)cc1 (stereo not drawn)
*A* 0.998

*Q* Return reported normalized growth; argument: C[C@H]1CC[C@@H](C(C)(C)O)CC2=C1CC[C@@H]2C
*A* 0.965

*Q* Return reported normalized growth; argument: NC(N)=NS(=O)(=O)c1ccc(N)cc1
*A* 0.984

*Q* Return reported normalized growth; argument: C=C1C(=O)OC2CC1C(OC(C)=O)C/C(C)=C/CC/C(C)=C/CC[C@]2(C)O (stereo partly drawn)
*A* 0.981

*Q* Return reported normalized growth; argument: O=c1[nH]oc2c1CCNC2
*A* 1

* * *

- Method summary: chemical genetic growth profiling, strain panel (AID 1159580);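 also: tested at 20 µM; growth read once vehicle control cultures reached saturation at 30 °C; 1 = growth at the plate median or of vehicle wells; lower values mean less growth of the strain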
- Run parameters: S. cerevisiae deletion strains, growth OD, locus YDR150W, strain NUM1, hits give low values
About 2,000 (36%) of roughly 5,500 compounds were called active. Roughly 18% stayed inconclusive and do not appear here. The list shows a part of the results.
Give measured normalized growth for each item. Keep answers brief.
Form rule: numeric answer, no unit written next to it.

*Q* Return reported normalized growth; argument: O=[N+]([O-])c1ccc2c(c1)NC(c1ccc([N+](=O)[O-])s1)O2 (configuration not stated)
*A* 0.0493

*Q* Return reported normalized growth; argument: N#CC(C#N)=Cc1ccc(-c2cc(C(F)(F)F)ccc2Cl)o1
*A* 0.993

*Q* Return reported normalized growth; argument: CC[N+](CC)(CC)CCOc1cccc(OCC[N+](CC)(CC)CC)c1OCC[N+](CC)(CC)CC
*A* 0.995

*Q* Return reported normalized growth; argument: COC(=O)[C@@H](N)Cc1ccc(O)c(O)c1
*A* 0.958

*Q* Return reported normalized growth; argument: Oc1cc2c(cc1O)CN(C(=S)NCCc1ccc(Cl)cc1)CCC2
*A* 0.656

*Q* Return reported normalized growth; argument: CCCN(CCC)C1CCc2cccc(O)c2C1 (configuration not stated)
*A* 0.998

*Q* Return reported normalized growth; argument: CC1(C)NC(=O)N(c2ccc([N+](=O)[O-])c(C(F)(F)F)c2)C1=O
*A* 1.03

*Q* Return reported normalized growth; argument: COc1cc(-c2coc3cc(OCc4ccccc4)c(OC)c(O)c3c2=O)cc(OCc2ccccc2)c1OC
*A* 1.01

*Q* Return reported normalized growth; argument: CCOC(=O)Cn1c(=O)c(C#N)cn(C(C)C)c1=O
*A* 1.02

*Q* Return reported normalized growth; argument: CCCn1c(=O)c(C#N)cn(-c2ccc(Cl)cc2)c1=O
*A* 1.02

*Q* Return reported normalized growth; argument: N#C/C(=C\c1cccn1-c1ccc(OC(F)(F)F)cc1)S(=O)(=O)c1ccccc1
*A* 1.03

*Q* Return reported normalized growth; argument: Clc1ccc(C2=CSC3=NCCCN23)cc1
*A* 0.959

* * *

Give measured normalized growth for each item. Keep answers brief.
- Method summary: chemical genetic growth profiling, strain panel (AID 1159580);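 also: tested at 20 µM; growth read once vehicle control cultures reached saturation at 30 °C; 1 = growth at the plate median or of vehicle wells; lower values mean less growth of the strain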
- Run parameters: S. cerevisiae deletion strains, growth OD, locus YBR229C, strain ROT2, hits give low values
The campaign covered roughly 5,500 compounds. About 2,000 (36%) were called active. Another 18% or so got no clear call; they are omitted. Some of the results follow.
Form rule: numeric answer, no unit written next to it.

*Q* Return reported normalized growth; argument: O=[N+]([O-])c1ccc(N2CCCN(C(=S)Nc3ccc(Cl)cc3Cl)CC2)nc1
*A* 0.96

*Q* Return reported normalized growth; argument: C=C1C(=O)O[C@@H]2C[C@@]3(C)CCC[C@H](C)C3=C[C@H]12
*A* 0.943

*Q* Return reported normalized growth; argument: COc1ccc2c(c1OC)C(=O)OC2[C@H]1c2c(cc3c(c2OC)OCO3)CCN1C (stereo partly drawn)
*A* 1.01

* * *

- Method summary: chemical genetic growth profiling, strain panel (AID 1159580);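 also: tested at 20 µM; growth read once vehicle control cultures reached saturation at 30 °C; 1 = growth at the plate median or of vehicle wells; lower values mean less growth of the strain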
- Run parameters: S. cerevisiae deletion strains, growth OD, locus YJR066W, strain TOR1
Out of some 5,500 compounds screened, about 2,000 (36%) were called active. Not shown: some 18% with an inconclusive outcome. Rule as the data show it: active = normalized growth mostly below about 0.91 (no sharp cut-off); inconclusive = no clear call, values can overlap the other calls; inactive = mostly above about 0.92. Some of the results follow.
Valid outcomes are listed here; reply with one: True (active), False (inactive)

*Q* Entry CC1(C)OC(=O)C(=Cc2cccn2-c2ccc(OC(F)(F)F)cc2)C(=O)O1 : call = ?
*A* False

*Q* Entry CC(C)NCC(O)COc1cccc2ccccc12 (stereo not given) : call = ?
*A* False

*Q* Entry CC1(C)OC(=O)C(=Cc2cccn2-c2ccc(C(F)(F)F)cc2)C(=O)O1 : call = ?
*A* False

*Q* Entry CCCC(=O)O[C@]1(C(=O)CO)CCC2[C@@H]3CCC4=CC(=O)CC[C@]4(C)C3[C@@H](O)C[C@@]21C (stereo not given in full) : call = ?
*A* False

*Q* Entry CC(C)COCC(CN(Cc1ccccc1)c1ccccc1)N1CCCC1 (stereo not given) : call = ?
*A* False

*Q* Entry CC1(C)NC(=O)N(c2ccc([N+](=O)[O-])c(C(F)(F)F)c2)C1=O : call = ?
*A* False

*Q* Entry CC(=O)OC1CCC2(C)C(=CC=C3C2CCC2(C)C3CCC2C(C)/C=C/C(C)C(C)C)C1(C)C (stereo not given) : call = ?
*A* False

*Q* Entry N#CC(C#N)=Cc1ccc(-c2ccccc2C(F)(F)F)o1 : call = ?
*A* False

*Q* Entry O=C(Nc1ccc(OC(F)(F)F)cc1)N1CCN(c2nc(-c3ccccc3)ns2)CC1 : call = ?
*A* False

*Q* Entry CC(C(=O)O)c1ccc(C(=O)c2cccs2)cc1 (stereo not given) : call = ?
*A* False

*Q* Entry O=[N+]([O-])c1ccc2c(c1)NC(c1ccc([N+](=O)[O-])s1)O2 (stereo not given) : call = ?
*A* True

*Q* Entry C=C1C(=O)O[C@@H]2C[C@@]3(C)CCC[C@H](C)C3=C[C@H]12 : call = ?
*A* False

*Q* Entry O=C(NNc1ccc(I)cc1)c1cc(Cl)cc(Cl)c1 : call = ?
*A* False

*Q* Entry O=C(O)c1ccccc1-c1c2cc(Br)c(=O)cc-2oc2[c]([Hg])c(O)c(Br)cc12 : call = ?
*A* True

*Q* Entry CCOC(=O)[C@H](CCc1ccccc1)N[C@@H](C)C(=O)N1[C@H](C(=O)O)C[C@@H]2CCC[C@@H]21 : call = ?
*A* False

Data provenance is PubChem BioAssay AID1159580.
